Biological target: STAT6 (endogenous, HiBiT-tagged) in HeLa LgBiT clone 4.14 cells (Homo sapiens)
Construct: These cells express endogenous STAT6; host or cells: HeLa LgBiT clone 4.14
Experiment: STAT6 Degrader Assay (HiBiT based, HeLa LgBiT clone 4.14 cells, luminescence, DC50)
Type: cell-based
Conditions: Emax provided for test compounds with <80% Emax (and 2c15), geometric mean, read-out: STAT6 degradation Emax
Readout Type: Emax

[ask] Give its Emax value. Item: Cn1c(CN2CCC(c3ccc(C(=O)N4CCC(CN5CCN(c6cccc(NC7CCC(=O)NC7=O)c6)CC5)CC4)cc3)CC2)cc2c(-c3ccc4[nH]ncc4c3)ccnc21 (centres unmarked) [Example 2l1]
[reply] 60 to 70%

[ask] Give its Emax value. Item: Cn1c(CN2CCC(c3ccc(C(=O)N4CCC(CN5CCN(C(=O)c6ccc(NC7CCC(=O)NC7=O)cc6F)CC5)CC4)cc3)CC2)cc2c(-c3ccc(N)nc3)ccnc21 (centres unmarked) [Example 2e2]
[reply] < 20%

[ask] Give its Emax value. Item: COCc1nc2cc(-c3ccnc4c3cc([C@H](C)N3CCC(c5ccc(C(=O)N6CCC(CN7CCN(c8ncc(NC9CCC(=O)NC9=O)cc8F)CC7)CC6)cc5)CC3)n4C)ccc2[nH]1 (some centres unmarked) [Example 2n12]
[reply] 70 to 80%

[ask] Give its Emax value. Item: C[C@@H](c1cc2c(-c3ccc(N)nc3)ccnc2n1C)N1CCC(c2ccc(C(=O)N3CCC(CN4CCC(c5ccc(NC6CCC(=O)NC6=O)cc5F)C(F)(F)C4)CC3)cc2)CC1 (some centres unmarked) [Example 2m2]
[reply] 60 to 70%

[ask] Give its Emax value. Item: C[C@H]1CN(c2ccc(NC3CCC(=O)NC3=O)cc2F)CCN1CC1CCN(C(=O)c2ccc(C3CCN(Cc4cc5c(-c6ccc(N)nc6)ccnc5n4C)CC3)cc2)CC1 (some centres unmarked) [Example 2f3]
[reply] 20 to 30%

----------
Target: STAT6 (endogenous, HiBiT-tagged) in HeLa LgBiT clone 4.14 cells (Homo sapiens)
Construct: These cells express endogenous STAT6; host or cells: HeLa LgBiT clone 4.14
Experiment: STAT6 Degrader Assay (HiBiT based, HeLa LgBiT clone 4.14 cells, luminescence, DC50)
Format: cell-based
Details: Emax provided for test compounds with <80% Emax (and 2c15), geometric mean, read-out: STAT6 degradation Emax
Answer each item with its documented Emax.

[ask] Give its Emax value. Item: COCc1nc2cc(-c3ccnc4c3cc(CN3CCC(c5ccc(C(=O)N6CCC(CN7CCN(c8ccc(NC9CCC(=O)NC9=O)cc8F)C[C@@H]7C)CC6)cc5)CC3)n4C)ccc2[nH]1 (some centres unmarked)
[reply] 50 to 60%

[ask] Give its Emax value. Item: CN(C(=O)c1ccc(C2CCN(Cc3cc4c(-c5ccc6[nH]ncc6c5)ccnc4n3C)CC2)cc1)c1ccc(C2CCN(c3ccc(NC4CCC(=O)NC4=O)cc3)CC2)cc1 (centres unmarked)
[reply] 40 to 50%

[ask] Give its Emax value. Item: CN(C(=O)c1ccc(C2CCN(Cc3cc4c(-c5ccc6[nH]ncc6c5)ccnc4n3C)CC2)cc1)c1ccc(C2CCN(c3ccc(NC4CCC(=O)NC4=O)cc3F)CC2)cc1 (centres unmarked)
[reply] 70 to 80%

[ask] Give its Emax value. Item: C[C@@H](c1cc2c(-c3ccc(N)nc3)ccnc2n1C)N1CCC(c2ccc(C(=O)N3CCC(CN4CCN(c5ccc(NC6CCC(=O)NC6=O)cc5Cl)CC4)CC3)cc2)CC1 (some centres unmarked)
[reply] 70 to 80%

[ask] Give its Emax value. Item: Cn1c(CN2CC=C(c3ccc(C(=O)N4CCn5nc(CN6CCC(c7ccc(NC8CCC(=O)NC8=O)cc7F)CC6)cc5C4)cn3)CC2)cc2c(-c3ccc(N)nc3)ccnc21 (centres unmarked)
[reply] < 20%

----------
Answer each item with its documented Emax.
Target: STAT6 (endogenous, HiBiT-tagged) in HeLa LgBiT clone 4.14 cells (Homo sapiens)
Construct: These cells express endogenous STAT6; host or cells: HeLa LgBiT clone 4.14
Sequence (P42226 1-847): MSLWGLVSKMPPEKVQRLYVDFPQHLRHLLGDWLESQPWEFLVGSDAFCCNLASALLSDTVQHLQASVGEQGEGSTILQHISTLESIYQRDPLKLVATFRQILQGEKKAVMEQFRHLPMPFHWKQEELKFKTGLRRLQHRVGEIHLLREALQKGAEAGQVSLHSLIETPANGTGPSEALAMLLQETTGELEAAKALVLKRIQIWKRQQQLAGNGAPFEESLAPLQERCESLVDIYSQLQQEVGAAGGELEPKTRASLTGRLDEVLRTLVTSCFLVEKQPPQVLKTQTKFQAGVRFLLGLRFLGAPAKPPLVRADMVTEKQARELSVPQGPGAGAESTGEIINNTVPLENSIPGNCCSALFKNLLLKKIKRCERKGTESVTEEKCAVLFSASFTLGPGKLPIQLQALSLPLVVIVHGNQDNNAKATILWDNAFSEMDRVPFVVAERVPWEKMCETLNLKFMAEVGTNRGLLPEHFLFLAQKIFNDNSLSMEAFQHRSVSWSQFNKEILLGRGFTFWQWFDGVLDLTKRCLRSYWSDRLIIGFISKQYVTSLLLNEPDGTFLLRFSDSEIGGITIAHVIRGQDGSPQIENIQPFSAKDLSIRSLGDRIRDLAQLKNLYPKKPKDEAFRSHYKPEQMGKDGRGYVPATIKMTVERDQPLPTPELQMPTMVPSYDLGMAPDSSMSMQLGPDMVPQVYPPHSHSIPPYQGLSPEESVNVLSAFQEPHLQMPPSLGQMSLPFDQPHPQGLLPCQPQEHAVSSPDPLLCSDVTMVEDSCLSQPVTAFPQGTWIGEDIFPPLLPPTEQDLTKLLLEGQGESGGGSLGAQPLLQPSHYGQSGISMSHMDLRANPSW
Assay: STAT6 Degrader Assay (HiBiT based, HeLa LgBiT clone 4.14 cells, luminescence, DC50)
Assay type: cell-based
Conditions: Emax provided for test compounds with <80% Emax (and 2c15), geometric mean, read-out: STAT6 degradation Emax

[ask] What Emax appears in the records for this compound with STAT6 (endogenous, HiBiT-tagged) in HeLa LgBiT clone 4.14 cells (Homo sapiens)? Cn1c(CN2CCC(c3ccc(C(=O)N4CCC(CN5CCN(C(=O)c6ccccc6NC6CCC(=O)NC6=O)CC5)CC4)cc3)CC2)cc2c(-c3ccc4[nH]ncc4c3)ccnc21 (stereo not shown)
[reply] < 20%

[ask] What Emax appears in the records for this compound with STAT6 (endogenous, HiBiT-tagged) in HeLa LgBiT clone 4.14 cells (Homo sapiens)? Cn1c(CN2CCC(c3ccc(C(=O)N4CCC(CN5CCN(c6ccc(NC7CCC(=O)NC7=O)cc6F)CC5)CC4)cc3)CC2)cc2c(-c3cnc(N)c(F)c3)ccnc21 (stereo not shown)
[reply] < 20%

[ask] What Emax appears in the records for this compound with STAT6 (endogenous, HiBiT-tagged) in HeLa LgBiT clone 4.14 cells (Homo sapiens)? Cn1c(CN2CCC(c3ccc(C(=O)N4CCC(CN5CCN(c6ccc(NC7CCC(=O)NC7=O)cc6F)CC5)CC4)cc3)CC2)cc2c(-c3ccc(N)nc3C#N)ccnc21 (stereo not shown)
[reply] < 20%

[ask] What Emax appears in the records for this compound with STAT6 (endogenous, HiBiT-tagged) in HeLa LgBiT clone 4.14 cells (Homo sapiens)? C[C@@H](c1cc2c(-c3ccc(N)nc3)ccnc2n1C)N1CCC(c2ccc(C(=O)N3CCC(CN4CCN(c5ccc(NC6CCC(=O)NC6=O)cc5C(F)(F)F)CC4)CC3)cc2)CC1 (stereo partly shown)
[reply] 40 to 50%

[ask] What Emax appears in the records for this compound with STAT6 (endogenous, HiBiT-tagged) in HeLa LgBiT clone 4.14 cells (Homo sapiens)? Cn1c(CN2CCC(c3ccc(C(=O)N4CCC(CN5CCN(Cc6ccc(NC7CCC(=O)NC7=O)cc6)CC5)CC4)cc3)CC2)cc2c(-c3ccc4[nH]ncc4c3)ccnc21 (stereo not shown)
[reply] 60 to 70%

[ask] What Emax appears in the records for this compound with STAT6 (endogenous, HiBiT-tagged) in HeLa LgBiT clone 4.14 cells (Homo sapiens)? C[C@@H](c1cc2c(-c3ccc(N)nn3)ccnc2n1C)N1CCC(c2ccc(C(=O)N3CCC(CN4CCN(c5ccc(NC6CCC(=O)NC6=O)cc5F)CC4)CC3)cc2)CC1 (stereo partly shown)
[reply] 70 to 80%

[ask] What Emax appears in the records for this compound with STAT6 (endogenous, HiBiT-tagged) in HeLa LgBiT clone 4.14 cells (Homo sapiens)? Cn1c(CN2CCC(c3ccc(C(=O)N4CCC(CN5CCN(c6ccc(C(=O)NC7CCC(=O)NC7=O)nn6)CC5)CC4)cc3)CC2)cc2c(-c3ccc4[nH]ncc4c3)ccnc21 (stereo not shown)
[reply] 50 to 60%

[ask] What Emax appears in the records for this compound with STAT6 (endogenous, HiBiT-tagged) in HeLa LgBiT clone 4.14 cells (Homo sapiens)? COCc1nc2cc(-c3ccnc4c3cc([C@H](C)N3CCC(c5ccc(C(=O)N6CCC(CN7CCN(c8ccc(NC9CCC(=O)NC9=O)cc8C#N)CC7)CC6)cc5)CC3)n4C)ccc2[nH]1 (stereo partly shown)
[reply] 30 to 40%

[ask] What Emax appears in the records for this compound with STAT6 (endogenous, HiBiT-tagged) in HeLa LgBiT clone 4.14 cells (Homo sapiens)? "COCc1nc2cc(-c3ccnc4c3cc(CN3CCC(c5ccc(C(=O)N6CCC(CN7CCN(Cc8ccc(-n9cc(N%10CCC(=O)NC%10=O)nn9)cc8)CC7)CC6)cc5)CC3)n4C)ccc2[nH]1"
[reply] < 20%

[ask] What Emax appears in the records for this compound with STAT6 (endogenous, HiBiT-tagged) in HeLa LgBiT clone 4.14 cells (Homo sapiens)? Cn1c(CN2CCC(c3ccc(C(=O)N4CCN(C(=O)CN5CCN(c6ccc(NC7CCC(=O)NC7=O)cc6F)CC5)CC4)cc3)CC2)cc2c(-c3ccc4[nH]ncc4c3)ccnc21 (stereo not shown)
[reply] 60 to 70%
